- studyTarget: LRRK2 (Homo sapiens, UniProt Q5S007, G2019S)
- Construct: purchased Invitrogen PV4882 (lot 567054A)
- Sequence (Q5S007 whole entry G2019S): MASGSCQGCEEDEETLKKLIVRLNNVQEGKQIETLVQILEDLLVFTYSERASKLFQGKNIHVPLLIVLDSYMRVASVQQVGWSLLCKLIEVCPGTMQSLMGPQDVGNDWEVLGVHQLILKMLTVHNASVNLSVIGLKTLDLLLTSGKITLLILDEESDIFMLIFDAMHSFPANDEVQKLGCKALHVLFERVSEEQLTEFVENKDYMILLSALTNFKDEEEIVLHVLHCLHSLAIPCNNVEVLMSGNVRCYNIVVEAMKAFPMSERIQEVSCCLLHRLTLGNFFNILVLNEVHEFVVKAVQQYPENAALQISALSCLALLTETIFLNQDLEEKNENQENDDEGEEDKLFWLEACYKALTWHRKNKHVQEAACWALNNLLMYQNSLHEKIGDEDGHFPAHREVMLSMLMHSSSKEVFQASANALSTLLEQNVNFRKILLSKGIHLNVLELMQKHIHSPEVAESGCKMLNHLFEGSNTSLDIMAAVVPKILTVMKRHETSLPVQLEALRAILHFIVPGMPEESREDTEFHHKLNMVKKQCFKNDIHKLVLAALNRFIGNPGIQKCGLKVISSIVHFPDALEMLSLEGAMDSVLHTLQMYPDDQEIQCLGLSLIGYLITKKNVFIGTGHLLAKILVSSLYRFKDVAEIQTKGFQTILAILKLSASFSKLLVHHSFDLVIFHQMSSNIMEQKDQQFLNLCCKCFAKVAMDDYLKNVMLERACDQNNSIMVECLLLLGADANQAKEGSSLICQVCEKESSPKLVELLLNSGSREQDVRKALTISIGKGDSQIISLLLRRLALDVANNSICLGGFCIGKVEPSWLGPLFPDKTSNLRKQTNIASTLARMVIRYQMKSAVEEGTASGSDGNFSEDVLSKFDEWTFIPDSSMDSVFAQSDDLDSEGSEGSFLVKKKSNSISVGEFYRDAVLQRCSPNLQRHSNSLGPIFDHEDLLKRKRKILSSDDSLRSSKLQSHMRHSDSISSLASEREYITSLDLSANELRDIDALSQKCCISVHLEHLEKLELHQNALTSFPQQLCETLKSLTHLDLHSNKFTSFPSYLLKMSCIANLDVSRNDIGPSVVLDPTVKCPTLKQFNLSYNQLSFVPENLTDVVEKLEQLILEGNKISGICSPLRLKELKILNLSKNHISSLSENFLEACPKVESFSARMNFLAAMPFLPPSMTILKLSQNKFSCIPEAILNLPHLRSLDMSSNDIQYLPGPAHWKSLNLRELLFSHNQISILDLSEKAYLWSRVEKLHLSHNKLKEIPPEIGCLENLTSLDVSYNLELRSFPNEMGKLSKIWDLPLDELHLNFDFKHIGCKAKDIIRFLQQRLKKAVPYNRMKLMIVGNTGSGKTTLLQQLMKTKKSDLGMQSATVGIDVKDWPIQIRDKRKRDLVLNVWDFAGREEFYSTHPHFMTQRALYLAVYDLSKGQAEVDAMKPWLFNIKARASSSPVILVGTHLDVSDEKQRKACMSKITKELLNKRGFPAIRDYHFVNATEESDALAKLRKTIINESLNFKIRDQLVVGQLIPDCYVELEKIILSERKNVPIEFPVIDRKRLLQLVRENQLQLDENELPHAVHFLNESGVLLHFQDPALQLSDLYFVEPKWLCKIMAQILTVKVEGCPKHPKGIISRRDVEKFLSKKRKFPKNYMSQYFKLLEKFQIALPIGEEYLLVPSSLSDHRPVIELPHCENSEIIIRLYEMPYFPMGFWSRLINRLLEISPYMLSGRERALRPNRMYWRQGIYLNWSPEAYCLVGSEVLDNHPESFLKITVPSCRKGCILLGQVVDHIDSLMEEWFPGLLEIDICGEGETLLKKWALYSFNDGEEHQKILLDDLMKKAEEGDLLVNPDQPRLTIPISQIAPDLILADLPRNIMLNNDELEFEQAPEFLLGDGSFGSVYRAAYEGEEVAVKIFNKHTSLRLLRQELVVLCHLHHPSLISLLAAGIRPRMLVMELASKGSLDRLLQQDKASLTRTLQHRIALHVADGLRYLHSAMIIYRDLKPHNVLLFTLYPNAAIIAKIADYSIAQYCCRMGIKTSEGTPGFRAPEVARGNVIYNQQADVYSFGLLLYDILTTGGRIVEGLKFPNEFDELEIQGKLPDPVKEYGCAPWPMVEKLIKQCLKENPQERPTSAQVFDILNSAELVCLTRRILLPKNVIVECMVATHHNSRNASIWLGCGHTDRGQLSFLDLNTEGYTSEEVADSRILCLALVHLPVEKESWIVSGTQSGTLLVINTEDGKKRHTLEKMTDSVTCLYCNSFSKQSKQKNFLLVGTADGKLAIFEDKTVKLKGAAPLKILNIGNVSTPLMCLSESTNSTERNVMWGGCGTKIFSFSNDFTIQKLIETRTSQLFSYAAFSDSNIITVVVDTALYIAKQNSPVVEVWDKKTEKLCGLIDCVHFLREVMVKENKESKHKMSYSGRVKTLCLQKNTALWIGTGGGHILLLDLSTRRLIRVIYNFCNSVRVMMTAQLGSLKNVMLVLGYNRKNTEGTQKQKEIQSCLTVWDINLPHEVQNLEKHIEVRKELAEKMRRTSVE
- protocolText: In Vitro LRRK2 Assay (LabChip 3000, fluorescently-labeled peptide substrate, ATP)
- Assay type: biochemical
- appliedConditions: read-out: LRRK2 Ki (KI), Table 8
recordedEndpoint: Ki (nM)

1) CNc1nc(Nc2cnn(CC(C)(C)O)c2C(F)(F)F)ncc1C(F)(F)F :: 26
2) CNc1nc(Nc2cnn(CC(O)C(C)C)c2C)ncc1C(F)(F)F (stereo not drawn) :: 3
3) CCNc1nc(Nc2cn(CC3(C)COC3)nc2C)ncc1C(F)(F)F :: 0.9
4) CNc1nc(Nc2cn(C(C)C)nc2C)ncc1Br :: 3.1
5) CNc1nc(Nc2cnn(S(=O)(=O)C(C)C)c2C)ncc1C(F)(F)F :: 8.1
6) CNc1nc(Nc2cn(C(C)(C)COC)nc2C)ncc1C(F)(F)F :: 6.9
7) CNc1nc(Nc2cnn(-c3ccc(S(=O)(=O)C4CC4)cc3)c2C)ncc1C(F)(F)F :: 18.8
8) CNc1nc(Nc2cn(CC3(C)COC3)nc2C)ncc1Cl :: 19
9) CNc1nc(Nc2cn(C3CCN(C)CC3)nc2C)ncc1C(F)(F)F :: 41

Data credit: patent US8815882B2
